biological target: Recombinant soluble 60-mer human BAFF (His-HuBAFF 134-285) (human, UniProt Q9Y275 134-285); experiment: cell-based or functional assay
value kind: Soluble 60-mer huBAFF (4 pM) Neutralization IC90
Numbers only, in pM.

Illustrative cases are given below, each with its answer.
• 323E9D1 (antibody, V domains shown) VH: QVTLKESGPGILQPSQTLSLTCSFSGFSMRTFGMGVGWIRQPSGKGLEWLAHIWWNDEKYYNPDLKSRLTVSKDSSKNQVFLTIANVDTSDTAPYYCTRVGPSISTIAEGFPYWGQGTLVTVSA VL: DIVMTQSQKFVSTRVGDRVSITCKASQNVGAAVVWYQQKSGQPPKLLIRSASNRYIGVPDRFTGSGSGTDFTLTVSDVQSGDLADYFCQQYSNYPLTFGAGTKLELT = 23
• Reference 2 (antibody, human IgG1, lambda, V domains shown, Comparator anti-BAFF antibody) VH: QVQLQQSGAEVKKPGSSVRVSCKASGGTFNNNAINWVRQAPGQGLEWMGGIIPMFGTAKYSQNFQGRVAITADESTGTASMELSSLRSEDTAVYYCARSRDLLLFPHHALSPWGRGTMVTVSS VL: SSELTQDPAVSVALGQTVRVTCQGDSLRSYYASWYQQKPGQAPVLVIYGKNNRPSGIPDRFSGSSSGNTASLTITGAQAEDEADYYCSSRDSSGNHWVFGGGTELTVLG = 198000
• 444G1A10 (antibody, V domains shown) VH: RVQLKESGPGLVAPSQSLFITCTVSGFSLTTYEINWVRQSPGKGLEWLGVIWTGGTTKYNSAFISRLSITKDNSKSLVFLKMSSLQTDDTAIYYCVREGRRYYAMDYWGQGTSVTVSS VL: NIVLTQSPASLAVSLGQRATISCRASESVDSYGNSFMFWFQQKPGQAPKLLIFLTSNLESGVPARFSGSGSRTDFTLTIDRVEADDAATYYCQQSNEDPRTFGGGTKLEIK = 35
• 409F12A11 (antibody, V domains shown) VH: IQLQQSGPELVKPGASMKISCKASGYTFTDKYINWVKQRPGQGLEWIGWIYPGSGNTKYNEKFKGMATLTVDTSSNTAYIHLSSLTSEDSAVYFCARGIIYYYDGSYPYALDYWGQGTSVTVSS VL: DIVLTQSPASLALSLGQRATISCRATKGVSKSGYSYMHWYQQKPGQPPKLLIYLASNLESGVPARFSGSGSGTDFTLNIHPVEEEDVATYYCQHSRELPLTFGAGTKLELK = 44
• 1094C4E6 (antibody, V domains shown) VH: EVQLQQSGAELVRPGASVKLSCTASGFNIKDDYMHWVKQTPEQGLEWIGRIDPAYGNGKYVPKFQDKATITADTSSNTAYLQLSSLTSEDTAVYYCARRYYAVSSVDYALDYWGQGTSVTVSS VL: DIVMTQSHKFMSTSVGDRVTITCKASQDVATAVAWYQQKPGQSPKLLIYWASTRHTGVPDRFTGSGSGTDFTLTISNVQSEDLANYFCQQYSNYPYTFGGGTTLEIK = 20900

Record Soluble 60-mer huBAFF (4 pM) Neutralization IC90 per entry; entries follow.
1. 27I21-3C7 (antibody, V domains shown) VH: QVQLQQSGPELVRPGTSVKISCKAPGYIFTSHWMQWVRQRPGQGLEWIGDIFPGSGTTDYNEKFKDKATVTVDRSSSSAYMQFNSLTSEDSAVYFCASGAFDYWGQGTTLTVSS VL: DIQMTQSPSSLSASLGERVSLTCRASQDIGNRLNWLQQAPDGTIKRLIYATSSLDSGVPKRFSGSRSGSDYSLTISSLESEDFVDYYCLQYASYPFTFGTGTKLEIK
2. 363D4A10 (antibody, V domains shown) VH: QVTLKESGPGILQSSQTLSLTCSFSGFSLKTFGMGVGWIRQPSGKGLEWLAHIWWNDDKFYHPALKSRLTISKDTSKNQVFLKIANVDTAETATYYCVRIGPSITTVAEGFAYWGQGTLVTVSA VL: DIVMTQSQKFMSTTVGDRVTITCKASQNVGSAVVWYQQKPGQSPILLIFSASNRYTGVPDRITGSGSGAEFTLTISSVQSEDLAEYFCQQYSSYPLTFGAGTKLELK
3. 436H6A9 (antibody, V domains shown) VH: QLQQSGPELVKPGASVKISCKASGYTFTDNFINWVKQRPGQGLEWIGWISPGSGNTKNNEKFKGKATVTVDTSSSTAYMQLSSLTSEDSAVYFCARGIIYYYDGTYPYALDYWGQGTSVTVSS VL: DIVLTQSPASLGVSLGQRATISCRATKGVTKSGYSYIHWYQQKPGQPPKLLIYLASNLQSGVPARFSGSGSGTDFTLNIHPVEEEDAATYYCQHSRELPLTFGAGTKLELK
4. 1002E8A6 (antibody, V domains shown) VH: EVQLQQSGPELVKPGASVKMSCKASGYTITSYVMHWVKQKPGQGLEWIGYINPNNDGTKYNEKFKGKATLTSDKSSNTAYMELSSLTSEDSAVYYCARGDYSNYFYWYFDVWGAGTTVTVSS VL: DIKMTQSPSSMYASLGERVTITCKASQDINSYLTWFQQKPGKSPETLIYRANRLVSGVPSRFSGSGSGQDYSLTISSLEYEDMGIYSCLQYDEFPYTFGGGTKLEIK
5. 381A6A9 (antibody, V domains shown) VH: QVQLQQSGPELVKPGGSVKISCKAAGYSLTSYYIHWVKQRPGQGLEWIGLIFPGSGNSKYIEKFKGKATLTADTSSNTAYMQLSSLTSEDSAVYYCTRGDFGNYLAYWYFDVWGTGTTVTVSS VL: DIKMTQSPSSIYASLGERVTITCKASQDINSYLSWFQQKPGKSPKTLMYRANRLVDGVPSRFSGSGSGQDYSLTISSLEYEDMGNYYCLQYDEFPYTFGGGAKLEIK

1. 33
2. 23
3. 27
4. 79
5. 42

// provenance: patent US20190309034A1
